Target: T1, cynomolgus IL-18BP (cynomolgus monkey)
T1 construct: Generated in-house; also called cyIL-18BP; cyno IL-18BP
T1 chain: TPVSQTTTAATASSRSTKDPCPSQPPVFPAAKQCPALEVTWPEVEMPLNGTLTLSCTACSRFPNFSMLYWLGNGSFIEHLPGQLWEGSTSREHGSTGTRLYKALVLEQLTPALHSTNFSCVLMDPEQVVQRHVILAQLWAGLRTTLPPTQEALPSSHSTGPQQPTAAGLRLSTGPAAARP
Test: BLI (Octet), mAb on AHC biosensor
pKd: −log10 of the molar value.

Binder: SA307a (antibody, human IgG1, V domains shown, humanized; human IgG1 (suffix a), kappa) VH: QVQLQESGPGLVKPSQTLSLTCTVSGYSITQDYNAHWIRQPPGKGLEWIGYIHYSGSTNYNPSLKSRVTISRDTSKNQFSLKLSSVTAADTAVYYCARNYGSIYVNYFDYWGQGTLVTVSS VL: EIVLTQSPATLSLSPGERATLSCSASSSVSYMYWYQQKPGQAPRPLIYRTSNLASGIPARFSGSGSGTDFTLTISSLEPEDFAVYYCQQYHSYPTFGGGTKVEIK
pKd: 10.57
